Molecular target: Fibroblast growth factor 2 (Homo sapiens)
Assay: basic fibroblast growth factor binding to printed compounds – biochemical, small-molecule microarray, 635/667 nm fluorescence, primary screen (AID 1133)
Settings: FGF2, fluorescence 635/667, higher = more signal
Documented composite z-score across a set of compounds
Lab note: record just the number, no unit beside it.

[
  {
    "compound": "O=C1O[C@@H](c2ccccc2)[C@@H](c2ccccc2)N2[C@@H](c3ccc(O)cc3)[C@]3(C(=O)Nc4ccc(C#CC5(O)CCCCCC5)cc43)[C@@H](C(=O)N3CCN(c4ncccn4)CC3)[C@H]12",
    "experimental-value": 0.385
  },
  {
    "compound": "[N-]=[N+]=NCc1ccccc1[C@H]1OC(c2ccc(OCCCO)cc2)=N[C@@]1(Cc1ccccc1N=[N+]=[N-])C(=O)NCCN1CCOCC1",
    "experimental-value": 0.939
  },
  {
    "compound": "COC(=O)[C@@]1(Cc2ccc(F)cc2)[C@@H]2[C@@H](CC(=O)[C@H]2CC(=O)C(=O)N2CCCC2)CN1C(=O)c1ccccc1",
    "experimental-value": 0.455
  },
  {
    "compound": "CCCCCCCCCCC(O)C1C=CC2C(=O)NC(=O)C2N1Nc1ccccn1 (centres undefined)",
    "experimental-value": -1.4
  },
  {
    "compound": "COCCOC(=O)N1C(=O)[C@@]2(c3cc(C#Cc4ccc(OC)cc4)ccc31)[C@H](c1ccc(OCCO)cc1)N1[C@H](c3ccccc3)[C@H](c3ccccc3)OC(=O)[C@H]1[C@@H]2C(N)=O",
    "experimental-value": 1.31
  }
]

[Q] Identify measured composite z-score associated with CC(C)(C)OC(=O)CC[C@@]1(C(=O)N2CCCCC2)N=C(c2ccc(OCCCO)cc2)O[C@@H]1c1ccccc1N=[N+]=[N-]
[A] 0.722

[Q] Identify measured composite z-score associated with C=CC[C@]1(C(=O)N2CCOCC2)N=C(c2ccc(OCCCO)cc2)O[C@H]1c1ccccc1CN=[N+]=[N-]
[A] 0.95

[Q] Identify measured composite z-score associated with C=CC[C@@]1(C(=O)NCCN2CCOCC2)N=C(c2ccc(OCCCO)cc2)O[C@@H]1c1ccccc1
[A] 1.73

[Q] Identify measured composite z-score associated with CC(C)N1C(=O)c2ccccc2[C@](C)(C(=O)O)[C@@H]1c1ccc(CO)cc1
[A] -0.977
